Assay: Metabolic stability in cryopreserved human hepatocytes
Format: in vitro ADME
Details: pooled cryopreserved hepatocytes, pH 7.3, read-out: Clint (intrinsic clearance)
Excerpt: The assay was contracted and performed by Cerep (Seattle, WA Laboratories, 15318 N. E. 95th Street Redmond, WA, 98052) according to the published procedure (Cerep ref 1432). Pooled cryopreserved hepatocytes were thawed, washed, and resuspended in Krebs–Heinslet buffer (pH 7.3). […]
readout-type: hepatocyte CLint at 1 μM (µL/min/1e6 cells)
Provide only the numeric value, understood in µL/min/1e6 cells.

input: // hepatocyte CLint at 1 μM lookup, key: C[C@H](NP(=O)(OC[C@@H]1C[C@@H](O)[C@H](n2cnc3c(N)ncnc32)O1)Oc1ccccc1)C(=O)OCc1ccccc1 (stereo partly shown)
output: 22.6
